Biological target: CaV3.2 (Homo sapiens, UniProt O95180)
Construct: expressed in transfected cells; host or cells: unnamed doxycycline-inducible cell line
Sequence (O95180 whole entry): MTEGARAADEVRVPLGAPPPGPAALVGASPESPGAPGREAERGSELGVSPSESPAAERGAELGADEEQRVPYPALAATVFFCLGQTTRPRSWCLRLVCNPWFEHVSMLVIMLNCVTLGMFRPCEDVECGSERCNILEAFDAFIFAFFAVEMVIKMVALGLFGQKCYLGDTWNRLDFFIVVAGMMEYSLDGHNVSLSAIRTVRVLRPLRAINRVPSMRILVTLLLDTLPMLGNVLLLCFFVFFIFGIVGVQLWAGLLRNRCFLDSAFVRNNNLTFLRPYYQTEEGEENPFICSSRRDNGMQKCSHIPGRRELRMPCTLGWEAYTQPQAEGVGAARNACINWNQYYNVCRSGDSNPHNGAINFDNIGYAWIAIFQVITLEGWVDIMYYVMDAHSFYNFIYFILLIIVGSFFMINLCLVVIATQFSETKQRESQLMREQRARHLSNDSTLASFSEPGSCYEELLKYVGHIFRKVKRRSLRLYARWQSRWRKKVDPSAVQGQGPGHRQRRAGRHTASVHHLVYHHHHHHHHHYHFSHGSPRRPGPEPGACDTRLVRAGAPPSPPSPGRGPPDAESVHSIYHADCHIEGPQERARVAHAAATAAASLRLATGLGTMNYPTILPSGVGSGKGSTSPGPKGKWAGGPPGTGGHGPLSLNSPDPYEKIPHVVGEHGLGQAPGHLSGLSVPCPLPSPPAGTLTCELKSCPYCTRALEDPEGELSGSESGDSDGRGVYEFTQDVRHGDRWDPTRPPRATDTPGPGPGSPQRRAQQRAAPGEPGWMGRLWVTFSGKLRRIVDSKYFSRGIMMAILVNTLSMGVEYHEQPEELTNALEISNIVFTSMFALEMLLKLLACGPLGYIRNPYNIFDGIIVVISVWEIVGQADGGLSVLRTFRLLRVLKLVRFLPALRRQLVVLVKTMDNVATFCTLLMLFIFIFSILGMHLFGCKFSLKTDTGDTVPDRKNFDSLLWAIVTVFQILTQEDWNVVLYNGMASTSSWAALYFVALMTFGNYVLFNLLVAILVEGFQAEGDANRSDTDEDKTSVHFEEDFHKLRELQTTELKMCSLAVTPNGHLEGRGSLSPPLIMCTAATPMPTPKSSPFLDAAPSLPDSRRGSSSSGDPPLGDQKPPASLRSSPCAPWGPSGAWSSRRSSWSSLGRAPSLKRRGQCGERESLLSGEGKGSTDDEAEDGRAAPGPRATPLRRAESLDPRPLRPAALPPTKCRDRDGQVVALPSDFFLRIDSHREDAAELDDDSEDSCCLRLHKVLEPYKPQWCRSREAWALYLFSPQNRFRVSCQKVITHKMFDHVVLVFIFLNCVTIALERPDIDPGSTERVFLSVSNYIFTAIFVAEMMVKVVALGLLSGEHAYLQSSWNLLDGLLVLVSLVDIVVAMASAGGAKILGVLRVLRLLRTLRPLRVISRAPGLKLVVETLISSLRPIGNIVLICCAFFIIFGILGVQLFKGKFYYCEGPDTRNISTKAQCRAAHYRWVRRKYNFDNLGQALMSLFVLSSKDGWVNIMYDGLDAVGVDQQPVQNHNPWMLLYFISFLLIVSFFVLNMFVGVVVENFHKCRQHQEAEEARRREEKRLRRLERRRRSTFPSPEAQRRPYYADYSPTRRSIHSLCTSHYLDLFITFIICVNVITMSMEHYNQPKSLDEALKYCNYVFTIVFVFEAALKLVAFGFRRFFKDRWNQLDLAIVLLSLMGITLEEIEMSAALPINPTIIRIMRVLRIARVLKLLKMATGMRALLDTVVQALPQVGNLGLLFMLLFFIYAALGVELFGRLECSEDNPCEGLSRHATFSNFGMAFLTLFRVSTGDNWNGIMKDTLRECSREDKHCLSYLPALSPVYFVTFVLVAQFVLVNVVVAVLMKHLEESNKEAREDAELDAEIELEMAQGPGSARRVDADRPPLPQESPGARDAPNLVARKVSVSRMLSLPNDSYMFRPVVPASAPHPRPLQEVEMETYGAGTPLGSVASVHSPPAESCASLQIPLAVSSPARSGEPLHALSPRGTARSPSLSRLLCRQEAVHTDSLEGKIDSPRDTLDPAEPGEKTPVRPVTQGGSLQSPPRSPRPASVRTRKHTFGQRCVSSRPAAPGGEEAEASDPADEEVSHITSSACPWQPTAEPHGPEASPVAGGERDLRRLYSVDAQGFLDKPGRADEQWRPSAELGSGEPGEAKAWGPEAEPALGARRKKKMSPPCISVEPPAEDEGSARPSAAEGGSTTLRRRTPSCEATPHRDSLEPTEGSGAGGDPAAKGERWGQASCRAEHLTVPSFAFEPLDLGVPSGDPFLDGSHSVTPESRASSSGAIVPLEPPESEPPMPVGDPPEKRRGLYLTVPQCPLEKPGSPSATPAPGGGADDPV
Assay: High-throughput CaV3.2/Kir2.3 T-type FLIPR fluorescent assay
Assay type: cell-based
Conditions: Table 5; Fluo-4 FLIPR; closed or inactivated state not stated
pIC50: −log10 of the molar value.
Quantity Measured: pIC50

Past entries and their recorded results:
* CC(C)(C(=O)NCc1cccnc1Oc1ccc(F)cc1)S(=O)(=O)c1cccc(C(F)(F)F)c1 | 5.14
* CC(C)(C(=O)NCCc1c[nH]c2ccc(F)cc12)S(=O)(=O)c1cccc(C(F)(F)F)c1 | 5.28

1: CC(C)(CCN1CCn2nc(C(F)(F)F)cc2C1=O)S(=O)(=O)c1cccc(C(F)(F)F)c1
2: CC(C)(C(=O)NCc1ccccc1S(=O)(=O)c1cccc(C(F)(F)F)c1)S(=O)(=O)c1cccc(C(F)(F)F)c1
INPUT: Record comparison, field pIC50: mark the lower of 1 and 2 . Please identify the chosen entry by its label.
OUTPUT: 1

---

Molecular target: CaV3.2 (Homo sapiens)
Construct: expressed in transfected cells; host or cells: unnamed doxycycline-inducible cell line
Experiment: High-throughput CaV3.2/Kir2.3 T-type FLIPR fluorescent assay
Format: cell-based
Details: Table 4; Fluo-4 FLIPR; closed or inactivated state not stated
pIC50: −log10 of the molar value.
Quantity Measured: pIC50

• CC(C)S(=O)(=O)c1cc(C(F)(F)F)cnc1C(=O)NCc1cccc(S(=O)(=O)c2cccc(C(F)(F)F)c2)c1 [Compound 25] = 5.76
• O=C(NCc1ccccc1S(=O)(=O)c1cccc(C(F)(F)F)c1)c1ccc(F)c(Cl)c1 [Compound 52] = 5.89
• O=C(NCc1ccccc1S(=O)(=O)c1cccc(C(F)(F)F)c1)c1cn2cc(C(F)(F)F)ccc2n1 [Compound 51] = 5.98
• O=C(CCC(F)(F)F)NCc1ccc(S(=O)(=O)c2cccc(C(F)(F)F)c2)cc1 [Compound 53] = 5.39
• O=C1c2ccc(C(F)(F)F)nc2CN1Cc1cccc(S(=O)(=O)c2cccc(C(F)(F)F)c2)c1 [Compound 57] = 6.10
• O=C(NCc1ccc(S(=O)(=O)c2cccc(C(F)(F)F)c2)cc1)c1ccc(Cl)c(OC(F)(F)F)c1 [Compound 15] = 6.31

a: O=C(NCc1ccc(S(=O)(=O)c2cccc(C(F)(F)F)c2)cn1)c1ccc(F)c(Cl)c1 [Compound 104]
b: O=C1c2cc(C(F)(F)F)nn2CCN1Cc1ccccc1S(=O)(=O)c1cccc(C(F)(F)F)c1 [Compound 35]
INPUT: For this pair, a and b , which shows a numerically higher pIC50? Please identify the chosen entry by its label.
OUTPUT: a

1: O=C(NCc1ccc(S(=O)(=O)c2cccc(C(F)(F)F)c2)cc1)c1cn2cc(C(F)(F)F)ccc2n1 [Compound 13]
2: O=C(NCc1ccccc1S(=O)(=O)c1cccc(C(F)(F)F)c1)[C@@H]1C[C@@H](C2CCCCC2)CN1 [Compound 75]
3: COc1cc(C(=O)NCc2ccc(S(=O)(=O)c3cccc(C(F)(F)F)c3)cc2)cc(Cl)n1 [Compound 14]
INPUT: Returns the items ordered by pIC50, from maximum to minimum. List the labels according to the requested ordering.
OUTPUT: 3, 1, 2
(3: 6.37, 1: 6.13, 2: 5.80)

a: O=C(NCc1ccccc1S(=O)(=O)c1cccc(C(F)(F)F)c1)c1cc(F)cc(Cl)c1 [Compound 37]
b: O=C(NCc1ccc(S(=O)(=O)c2cccc(C(F)(F)F)c2)cc1)[C@@H]1CCCCN1 [Compound 79]
INPUT: Record comparison, field pIC50: mark the lower of a and b . Please identify the chosen entry by its label.
OUTPUT: b

A: O=C(NCc1cccc(S(=O)(=O)c2cccc(C(F)(F)F)c2)c1)c1cc(F)cc(Cl)c1 [Compound 18]
B: O=C(NCc1ccc(S(=O)(=O)c2cccc(C(F)(F)F)c2)cn1)c1ccc(C(F)(F)F)nc1 [Compound 90]
INPUT: For this pair, A and B , which shows a numerically higher pIC50? Please identify the chosen entry by its label.
OUTPUT: A
(A: 6.08, B: 5.68)
